settings: 283.15 K; 101.33 kPa; Liquid; Concentric cylinders viscometry
# rule met = viscosity below 400 mPa·s (exclusive); rule not met = viscosity at/above 400 mPa·s

CCCCn1cc[n+](C)c1C.O=S(=O)([N-]S(=O)(=O)C(F)(F)F)C(F)(F)F : rule met
CCCC[N+]1(C)CCCC1.O=S(=O)([O-])C(F)(F)F [1-butyl-1-methylpyrrolidinium trifluoromethanesulfonate] : rule not met
CCCC[N+]1(C)CCCC1.FC(F)(F)C(F)(F)[P-](F)(F)(F)(C(F)(F)C(F)(F)F)C(F)(F)C(F)(F)F : rule not met
CCCCCCOS(=O)(=O)[O-].CC[n+]1ccn(C)c1 [3-ethyl-1-methyl-1H-imidazolium hexyl sulfate] : rule not met
CCCC[N+]1(C)CCCC1.O=S(=O)([N-]S(=O)(=O)C(F)(F)F)C(F)(F)F : rule met
COCC[N+]1(C)CCCC1.O=S(=O)([N-]S(=O)(=O)C(F)(F)F)C(F)(F)F : rule met
CCCCCCCCCCCCCC[P+](CCCCCC)(CCCCCC)CCCCCC.FC(F)(F)C(F)(F)[P-](F)(F)(F)(C(F)(F)C(F)(F)F)C(F)(F)C(F)(F)F : rule not met

Alright, here's another compound for you.
Quick check: viscosity of CCOS(=O)(=O)[O-].CCn1cc[n+](C)c1 [1-ethyl-3-methylimidazolium ethyl sulfate] under 400 mPa·s?
rule met

====

conditions: 293.15 K; 101.33 kPa; Liquid; Concentric cylinders viscometry
readout-kind: viscosity (mPa·s)
Reply with just the number (in mPa·s).

Example results:
CCCCCCOS(=O)(=O)[O-].CC[n+]1ccn(C)c1 [3-ethyl-1-methyl-1H-imidazolium hexyl sulfate] : 437.53
CCCCn1cc[n+](C)c1C.O=S(=O)([N-]S(=O)(=O)C(F)(F)F)C(F)(F)F : 134.22
CCCCCCCCCCCCCC[P+](CCCCCC)(CCCCCC)CCCCCC.FC(F)(F)C(F)(F)[P-](F)(F)(F)(C(F)(F)C(F)(F)F)C(F)(F)C(F)(F)F : 471.76
CCCC[N+]1(C)CCCC1.O=S(=O)([O-])C(F)(F)F [1-butyl-1-methylpyrrolidinium trifluoromethanesulfonate] : 221.7
CCCC[N+]1(C)CCCC1.O=S(=O)([N-]S(=O)(=O)C(F)(F)F)C(F)(F)F : 98.74
CCCC[N+]1(C)CCCC1.FC(F)(F)C(F)(F)[P-](F)(F)(F)(C(F)(F)C(F)(F)F)C(F)(F)C(F)(F)F : 291.5

The recorded viscosity for entry CCOS(=O)(=O)[O-].CCn1cc[n+](C)c1 [1-ethyl-3-methylimidazolium ethyl sulfate] equals 126.89

The recorded viscosity for entry `COCC[N+]1(C)CCCC1.O=S(=O)([N-]S(=O)(=O)C(F)(F)F)C(F)(F)F` equals 68.61

====

conditions: 348.15 K; 101.33 kPa; Liquid; Vibrating tube method
readout-kind: mass density (kg/m3)
Reply with just the number (in kg/m3).

CCOS(=O)(=O)[O-].CCn1cc[n+](C)c1 [1-ethyl-3-methylimidazolium ethyl sulfate] : 1203.8
CCCC[N+]1(C)CCCC1.O=S(=O)([N-]S(=O)(=O)C(F)(F)F)C(F)(F)F : 1351.4
CCCCCCOS(=O)(=O)[O-].CC[n+]1ccn(C)c1 [3-ethyl-1-methyl-1H-imidazolium hexyl sulfate] : 1097.9

Now look at this entry.
The recorded mass density for entry `CCCCn1cc[n+](C)c1C.O=S(=O)([N-]S(=O)(=O)C(F)(F)F)C(F)(F)F` equals 1373.9
